# Test system: M14 melanoma
# measurement_description: NCI tumour cell line growth inhibition, 48 h; in the data active means GI50 below about 0.43 µM; inactive means the rest
Reply using exactly one outcome from 1.0 for active, 0.0 for inactive

Any idea what this test logged for CCC(c1ccc(OC)cc1)C(CC)c1ccc(O)c(CN2CCN(C)CC2)c1 (stereo not given) ?
0.0

Outcome logged for CN(Cc1cccc(F)c1)c1ccc(CO)c(Cl)c1 in this assay:
0.0

Hi team, can someone confirm the assay call for Nc1nc(N)c(C=Nc2ccc(Br)cc2)c(Nc2ccc(Br)cc2)n1 ?
0.0

What did this assay record as the result for CC(C)N1CCN(Cc2ccc3c(NNC(=O)c4ccccc4)nc4cc(F)ccc4n23)CC1 ?
1.0

// outcome(item) with item = COc1cccc(-c2nn(-c3ccccc3)cc2-c2ccnc(NCCNC(=O)Nc3cccc(C(F)(F)F)c3)c2)c1
0.0

Any idea what this test logged for CCCCCCNC(=O)Oc1ccc(/C(=C(/C)Cc2ccc(OC)cc2)c2ccc(OCCCN(C)C)cc2)cc1 ?
0.0

So what was the verdict on Cc1ccc(-c2c3c(nn2-c2ccc(S(N)(=O)=O)cc2)-c2ccccc2C3)cc1 in this test?
0.0

GET /call?item= N[C@@H]1C(=O)N2C(C(=O)OC(c3ccccc3)c3ccccc3)=C(CCl)CS[C@H]12 returns the recorded outcome of this test.
0.0

For Brc1ccc2[nH]cc(-c3nc(-c4c[nH]c5ncccc45)cs3)c2c1 , what call appears in the results of this test?
0.0

Record lookup: outcome of this test for Cc1cc(S(=O)(=O)/N=C/N(C)C)c(SC(=O)c2ccc(Cl)cc2)cc1Cl ?
0.0

----------
For each of the molecules below, state its TGI.
# System: BT-549 breast
# measurement_description: NCI tumour cell line growth inhibition, 48 h

Which TGI is listed for Cc1cn(C2CC(N)C(C(=O)NCC(=O)O)O2)c(=O)[nH]c1=O (stereo not given) ?
> 100 µM

Look at this molecule and give its reported TGI. COc1cccc(CSCC(=O)O)c1
> 100 µM

State the recorded TGI for this entry: C=CCN1C(=O)/C(=C/c2ccco2)N=C1SC1OC(COC(C)=O)C(OC(C)=O)C(OC(C)=O)C1OC(C)=O (stereo not given)
> 100 µM

Could you share which TGI value was measured for CC(C)(C)c1ccc(OC(=O)Nc2ccc(O)c(C(=O)O)c2)cc1 ?
> 100 µM

What TGI value was documented for this molecule, CCOC(=O)c1sc2nc(SC)nc3c2c1NCN3c1ccc(F)c(F)c1 ?
> 66.5 µM

----------
So I've got a bunch of molecules here, and I need their TGI values.
# Tested on: 786-0 renal
# measurement_description: NCI tumour cell line growth inhibition, 48 h
Your answer should be a plain number; it is taken to be in µM.

// TGI lookup, key: Cc1cc(S(=O)(=O)/N=C/N(C)C)c(SC(=O)c2ccc(Cl)cc2)cc1Cl
67.2

What does the data say about its TGI? Entry: CCN1C(=O)CCCc2c1ccc(Nc1ncc(Cl)c(NC3[C@@H](C(N)=O)[C@@H]4C=C[C@H]3C4)n1)c2OC (stereo not given in full)
9.12

Find the recorded TGI belonging to COc1ccc(S(=O)(=O)NC2=NCCN2C(=S)SN2CCn3c2nsc3=S)cc1 and report it.
35.4

Could you share which TGI value was measured for CC(=O)OC(Cc1ccc2ccccc2n1)(C(F)(F)F)C(F)(F)F ?
6.37

Find the recorded TGI belonging to COc1ccc2c(c1)C/C(=C\c1cccc3ccccc13)C2=O and report it.
77.7

Need TGI of CC(=O)OC1=CC2=CC[C@H]3[C@@H]4CCC(=O)[C@@]4(C)CC(=O)[C@]3(S)[C@@]2(C)CC1 , thanks.
87

Look at this molecule and give its reported TGI. CN(Cc1cccc(F)c1)c1ccc(CO)c(Cl)c1
41.2

Data request, read-out TGI, for CCC/C=C1\CCC(CN(C)C)C1=O (stereo not given)
7.16

Can you look up the measured TGI of COc1ccc2c(C3(c4cn(C)c5cc(OC)ccc45)C(=O)Nc4ccc(Cl)cc43)cn(C)c2c1 for me?
70

If you can, please state the reported TGI value of Clc1ccc(-c2csc(Nc3cccc(-c4csc(-c5ccccc5)n4)c3)n2)cc1 .
21.1

Can you look up the measured TGI of O=C1c2ccccc2C(=O)c2c(O)c(NCCCNCCO)cc(O)c21 for me?
23

What does the data say about its TGI? Entry: CCC(c1ccc(OC)cc1)C(CC)c1ccc(O)c(CN2CCN(C)CC2)c1 (stereo not given)
10.9

Quick check: TGI of CSc1c(C#N)c(N)nc2c(N=Nc3ccc(Br)cc3)c(N)nn12 ?
11.3

Entry under review: C=C1C(=O)O[C@H]2[C@H]1CC/C(COC(=O)CCSCCC(=O)OC/C1=C/CC[C@@]3(C)O[C@H]3[C@H]3OC(=O)C(=C)[C@@H]3CC1)=C\CC[C@@]1(C)O[C@@H]21 . Reported TGI?
2.21

Return reported TGI; argument: Cc1nc2c(o1)C(=Nc1ccccc1)c1ccccc1C2=O
28.5

For the molecule shown here, CC(C)N1CCN(Cc2ccc3c(NNC(=O)c4ccccc4)nc4cc(F)ccc4n23)CC1 , give the reported TGI.
6.01

Need TGI, item COC(=O)/C=C\C(C#N)(C#N)N=Cc1ccccc1
3.22

Reported TGI for N[C@@H]1C(=O)N2C(C(=O)OC(c3ccccc3)c3ccccc3)=C(CCl)CS[C@H]12 : what is it?
98.9
